System: Activin receptor type-1 (Homo sapiens); note: in the data inactive means no Kd found up to 30 µM
Sequence (Q04771 whole entry): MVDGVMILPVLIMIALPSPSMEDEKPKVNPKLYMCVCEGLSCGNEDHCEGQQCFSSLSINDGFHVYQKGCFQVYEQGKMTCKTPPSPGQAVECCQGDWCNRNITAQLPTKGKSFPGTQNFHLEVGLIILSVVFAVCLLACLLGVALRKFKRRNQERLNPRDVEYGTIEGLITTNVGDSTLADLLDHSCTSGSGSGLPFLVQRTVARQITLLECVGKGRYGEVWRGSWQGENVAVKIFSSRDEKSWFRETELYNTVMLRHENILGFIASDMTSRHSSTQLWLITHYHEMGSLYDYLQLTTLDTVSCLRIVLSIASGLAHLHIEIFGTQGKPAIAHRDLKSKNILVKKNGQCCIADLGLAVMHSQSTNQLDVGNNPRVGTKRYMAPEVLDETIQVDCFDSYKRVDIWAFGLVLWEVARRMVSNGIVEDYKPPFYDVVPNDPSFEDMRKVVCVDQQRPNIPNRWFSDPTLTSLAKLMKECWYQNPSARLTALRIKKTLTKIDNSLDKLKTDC
Activity calls are given as the source filed them.
Tick one outcome: yes for active, no for inactive

{"Smiles str": "O=C(O)[C@]1(Cc2cccc(Nc3nccs3)n2)CC[C@@H](Oc2cccc(Cl)c2F)CC1", "Group label": "yes"}
{"Smiles str": "CC(C)Nc1cc(-c2c[nH]c(C(=O)N[C@H](CO)c3cccc(Cl)c3)c2)c(Cl)cn1", "Group label": "no"}
{"Smiles str": "Cn1cc(-c2ccc3nnc(C(F)(F)c4ccc5ncccc5c4)n3n2)cn1", "Group label": "no"}
{"Smiles str": "CC(=O)Nc1cccc(-n2c(=O)n(C3CC3)c(=O)c3c(Nc4ccc(I)cc4F)n(C)c(=O)c(C)c32)c1", "Group label": "no"}
{"Smiles str": "COC(=O)N[C@@H](C)CNc1nccc(-c2cn(C(C)C)nc2-c2cc(Cl)cc(NS(C)(=O)=O)c2F)n1", "Group label": "no"}
{"Smiles str": "O=C(c1ccc(F)c(F)c1Nc1ccc(I)cc1F)N1CC(O)([C@@H]2CCCCN2)C1", "Group label": "no"}
{"Smiles str": "O=C1NC(=O)/C(=C/c2ccc3nccc(-c4ccncc4)c3c2)S1", "Group label": "no"}
{"Smiles str": "COc1cc2nccc(Oc3ccc(NC(=O)NC4CC4)c(Cl)c3)c2cc1C(N)=O", "Group label": "no"}
{"Smiles str": "CN1CCC(COc2cnc(-c3cccc(Cn4nc(-c5cccc(C#N)c5)ccc4=O)c3)nc2)CC1", "Group label": "no"}

# ---- query molecule ----
// query Tell me the assay call for "CCN1CCN(Cc2ccc(-c3cc4c(N[C@H](C)c5ccccc5)ncnc4[nH]3)cc2)CC1" please.
// result yes

###

System: Ribosyldihydronicotinamide dehydrogenase [quinone] (Homo sapiens, UniProt P16083); note: in the data inactive means no Kd found up to 30 µM
Sequence (P16083 whole entry): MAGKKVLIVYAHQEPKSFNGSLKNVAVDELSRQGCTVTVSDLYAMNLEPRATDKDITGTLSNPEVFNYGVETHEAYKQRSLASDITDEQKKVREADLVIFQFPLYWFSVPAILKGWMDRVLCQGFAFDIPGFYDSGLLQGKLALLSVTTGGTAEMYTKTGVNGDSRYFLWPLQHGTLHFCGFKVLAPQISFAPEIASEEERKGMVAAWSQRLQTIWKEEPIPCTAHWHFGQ
Activity calls are given as the source filed them.
Tick one outcome: active, inactive

{"Compound": "COc1cc(CCc2cc(NC(=O)c3ccc(N4C[C@@H](C)N[C@@H](C)C4)cc3)n[nH]2)cc(OC)c1 [AZD-4547]", "Group label": "inactive"}
{"Compound": "Cc1ccc(S(=O)(=O)Nc2nc3ccccc3nc2Nc2ccc3nsnc3c2)cc1", "Group label": "inactive"}
{"Compound": "CNC(=O)c1ccc(-c2cnc3ncc(Cc4ccc5ncccc5c4)n3n2)cc1F [CAPMATINIB]", "Group label": "inactive"}

// query Tell me the assay call for COc1cc(N2CCC(N3CCN(C)CC3)CC2)ccc1Nc1ncnc(Nc2ccccc2S(=O)(=O)C(C)C)n1 [ASP-3026] please.
// result active

// query Tell me the assay call for CN1CCC(COc2cnc(-c3cccc(Cn4nc(-c5cccc(C#N)c5)ccc4=O)c3)nc2)CC1 [TEPOTINIB] please.
// result active

// query Tell me the assay call for Cn1cc(-c2ccc(F)c(C(F)(F)F)c2)nc1C1CCN(c2ncnc3[nH]ncc23)CC1 [LY-2584702] please.
// result inactive
